test: Plasma protein binding in mouse assessed as free fraction; assay type: ADME, cell-free
REPORTED METRIC: fraction unbound

For Cc1cc(-c2[nH]c3ccc(C4CCNCC4)cc3c2C(C)C)cc(C)n1 , what is its reported fraction unbound?
0.05

---

assay: Plasma protein binding in human assessed as free fraction; assay type: ADME, cell-free
REPORTED METRIC: fraction unbound

For Cc1cc(-c2[nH]c3ccc(C4CCNCC4)cc3c2C(C)C)cc(C)n1 , what is its reported fraction unbound?
0.09

---

target: Toll-like receptor 7 (Homo sapiens); experiment: Antagonist activity at gardiquimod stimulated human TRL7 overexpressed in HEK293 cells assessed as inhibition of NF kappa B/Ap-1 activation preincubated with compound for 30 mins followed by gardiquimod stimulation measured after 22 hrs by SEAP reporter assay; format: cell-based
Sequence (Q9NYK1 whole entry): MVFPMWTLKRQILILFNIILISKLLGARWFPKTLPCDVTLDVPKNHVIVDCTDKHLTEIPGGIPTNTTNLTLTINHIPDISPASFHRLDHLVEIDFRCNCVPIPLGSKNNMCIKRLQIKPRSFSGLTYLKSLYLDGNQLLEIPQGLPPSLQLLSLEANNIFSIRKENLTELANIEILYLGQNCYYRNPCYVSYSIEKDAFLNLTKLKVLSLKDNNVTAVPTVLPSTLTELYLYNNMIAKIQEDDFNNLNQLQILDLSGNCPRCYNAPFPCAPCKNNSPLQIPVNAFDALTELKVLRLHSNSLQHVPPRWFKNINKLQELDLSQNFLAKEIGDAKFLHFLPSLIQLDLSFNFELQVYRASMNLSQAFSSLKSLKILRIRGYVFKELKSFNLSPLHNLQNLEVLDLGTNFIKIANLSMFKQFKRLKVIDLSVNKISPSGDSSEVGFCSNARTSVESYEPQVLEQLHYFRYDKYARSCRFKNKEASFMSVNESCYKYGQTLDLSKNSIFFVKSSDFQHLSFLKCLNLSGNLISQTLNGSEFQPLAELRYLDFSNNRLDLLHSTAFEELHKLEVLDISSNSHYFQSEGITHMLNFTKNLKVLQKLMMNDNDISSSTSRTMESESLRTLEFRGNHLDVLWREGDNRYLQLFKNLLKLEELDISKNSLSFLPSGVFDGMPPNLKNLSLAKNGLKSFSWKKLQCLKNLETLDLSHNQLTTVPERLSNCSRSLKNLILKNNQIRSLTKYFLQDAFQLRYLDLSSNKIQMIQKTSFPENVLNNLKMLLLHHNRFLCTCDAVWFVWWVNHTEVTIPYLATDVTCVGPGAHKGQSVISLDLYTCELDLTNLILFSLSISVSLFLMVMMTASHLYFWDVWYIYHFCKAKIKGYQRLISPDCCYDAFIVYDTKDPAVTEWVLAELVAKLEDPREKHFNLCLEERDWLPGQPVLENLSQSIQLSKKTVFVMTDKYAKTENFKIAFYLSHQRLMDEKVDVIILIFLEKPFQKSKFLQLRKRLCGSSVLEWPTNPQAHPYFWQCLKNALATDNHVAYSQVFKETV
This section presents compounds with their documented IC50 values.

Previously resolved entries follow.
CNCCN1CCC(c2ccc3[nH]c(-c4ccc(OC)nc4)c(C)c3c2)CC1 > 10 µM
CNCCN1CCC(c2ccc3[nH]c(-c4cccc(OC)n4)c(C)c3c2)CC1 > 10 µM

Now consider a different compound.
For CNCCN1CCC(c2ccc3[nH]c(-c4cccnc4)c(C)c3c2)CC1 , what is its reported IC50?
> 10 µM
